study-system: MAPK14;MAPK11;MAPK12 (human) (UniProt Q16539)
protocol-text: Inhibition of p38 Kinase Activity
Measured IC50, listed per entry.

# compound, result
data = [
    ("Cc1ccc(C(N)=O)cc1Nc1nc(N[C@@H]2CCN(C(C)CO)C2)nc(N(C)CC(C)(C)C)n1 (stereo partly drawn)", "< 1 µM"),
    ("Cc1ccc(C(N)=O)cc1Nc1nc(NC2CCN(CCc3ccccc3)C2)nc(N(C)CC(C)C)n1 (stereo not drawn)", "< 1 µM"),
]

Let us examine a further case.
Query: Which IC50 reading was recorded for the compound `Cc1ccc(C(N)=O)cc1Nc1nc(N[C@@H]2CCCC[C@H]2N)nc(N(C)CC(C)C)n1` ?
Reply: < 1 µM

----------
study-system: MAPK14;MAPK11;MAPK12 (human) (UniProt Q16539)
protocol-text: Inhibition of p38 Kinase Activity
pIC50: −log10 of the molar value.
# key: entry, value: pIC50

Record excerpt, results attached:
# compound, result
records = [
    ("CONC(=O)c1ccc(C)c(Nc2nc(N(C)CC(C)(C)C)nc(N3CCN(C)CC3)n2)c1", "> 6.00"),
    ("CNC(=O)c1ccc(C)c(Nc2nc(N[C@H]3CCNC3)nc(N(C)CC(C)C)n2)c1", "> 6.00"),
    ("CCONC(=O)c1ccc(C)c(Nc2nc(N)nc(N(C)CC(C)(C)C)n2)c1", "> 6.00"),
    ("CNC(=O)c1ccc(C)c(Sc2nc(N[C@@H]3CCNC3)nc(N(C)CC(C)(C)C)n2)c1", "> 4.52"),
    ("CC(CNc1nc(Nc2ccc3ncsc3c2)nc(N2CCN(C(=O)c3ccccc3)CC2)n1)c1ccccc1 (stereo not drawn)", "> 5.00"),
    ("Cc1ccc(Nc2nc(NC[C@@H]3CC[C@H]4C[C@@H]3C4(C)C)nc(N3CCCNCC3)n2)cc1C(N)=O", "> 5.00"),
    ("Cc1ccc(C(N)=O)cc1Nc1nc(N[C@H]2CCNC2)nc(N(C)CC(C)C)n1", "> 6.00"),
    ("CC(CNc1nc(Nc2ccc3ncsc3c2)nc(N2CCN(C(=O)c3cccnc3)CC2)n1)c1ccccc1 (stereo not drawn)", "> 5.00"),
    ("CCN(CC(C)(C)C)c1nc(Nc2cc(C(N)=O)ccc2C)nc(N[C@H]2CCNC2)n1", "> 6.00"),
    ("CONC(=O)c1ccc(C)c(Nc2nc(N(C)CC(C)(C)C)nc(N3CCCN(C)CC3)n2)c1", "> 6.00"),
]

Query: Lookup: pIC50 / MAPK14;MAPK11;MAPK12 (human) (UniProt Q16539) / `C[C@H](CNc1nc(NCCO)nc(Nc2ccc3ncsc3c2)n1)c1ccccc1`
Reply: > 5.00

Query: Also, CN(CC1CCC2CC1C2(C)C)c1nc(Nc2ccc3ncsc3c2)nc(N2CCN(S(C)(=O)=O)CC2)n1 (stereo not drawn) please.
Reply: > 5.00

Query: # iterate: OC(CNc1nc(Cl)nc(Nc2ccc3ncsc3c2)n1)c1ccccc1 (stereo not drawn)
Reply: > 5.00

----------
Overview of reported IC50 across a group of compounds:
study-system: UniProtKB Q16539
protocol-text: Inhibition of p38 Kinase Activity

# compound, reported-metric, result
measured = [
    ("Cc1ccc(C(N)=O)cc1Nc1nc(N[C@H]2CCN(C3CCCCC3)C2)nc(N(C)CC(C)(C)C)n1", "IC50", "< 1000 nM"),
    ("Cc1ccc(C(N)=O)cc1Nc1nc(N[C@H]2CCN(c3ccccc3N)C2)nc(N(C)CC(C)(C)C)n1", "IC50", "< 1000 nM"),
    ("Cc1ccc(C(=O)Nc2cccc(N(C)C)c2)cc1Nc1nc(N[C@H]2CCNC2)nc(N(C)CC(C)(C)C)n1", "IC50", "< 1000 nM"),
    ("CCONC(=O)c1ccc(C)c(Nc2nc(NCCO)nc(N(C)CC(C)(C)C)n2)c1", "IC50", "< 1000 nM"),
    ("Cc1ccc(C(N)=O)cc1Nc1nc(N[C@H]2CCN(C(C)(C)C)C2)nc(N(C)CC(C)(C)C)n1", "IC50", "< 1000 nM"),
    ("CCC[C@@H]1C[C@@H](Nc2nc(Nc3cc(C(N)=O)ccc3C)nc(N(C)CC(C)(C)C)n2)CN1", "IC50", "< 1000 nM"),
    ("CNC1CCN(c2cc(NCCOC(C)C)nc(-n3cnc4ccccc43)n2)C1 (configuration not stated)", "IC50", "< 10000 nM"),
    ("CN1CCCN(c2nc(Sc3cc(C(N)=O)ccc3F)nc(N(C)CC(C)(C)C)n2)CC1", "IC50", "< 30000 nM"),
    ("Cc1c(Nc2nc(Cl)nc(NCC(C)c3ccccc3)n2)ccc2ncsc12 (configuration not stated)", "IC50", "< 10000 nM"),
    ("Cc1ccccc1NC(=S)N(C)CCCN(C)c1nc(NCC(C)c2ccccc2)nc(Nc2ccc3ncsc3c2)n1 (configuration not stated)", "IC50", "< 10000 nM"),
]

Query: Given the compound CNC(=O)c1ccc(C)c(Nc2nc(NC3CCN(Cc4ccccc4)C3)nc(N(C)CC(C)C)n2)c1 (configuration not stated) , what is its reported IC50?
Reply: < 1000 nM

Query: And what about the compound `Cc1ccc(C(N)=O)cc1Nc1nc(N[C@H]2CCNC2)nc(SCC(C)C)n1` ?
Reply: < 1000 nM

Query: Continue with `CONC(=O)c1ccc(F)c(Sc2nc(N(C)CC(C)(C)C)nc(N3CCCN(C)CC3)n2)c1`
Reply: < 30000 nM

Query: Subsequent entry: `CCN1CC[C@@H](Nc2nc(Nc3cc(C(N)=O)ccc3C)nc(N(C)CC(C)(C)C)n2)C1`
Reply: < 1000 nM

Query: Thanks! And `Cc1ccc(C(N)=O)cc1Nc1nc(N[C@@H]2CCNC2)nc(-c2cccc(Cl)c2)n1` ?
Reply: < 1000 nM

Query: Ok, now `CONC(=O)c1ccc(C)c(Nc2nc(N(C)C)nc(N(C)CC(C)(C)C)n2)c1`
Reply: < 1000 nM

Query: Same read-out for Cc1ccc(C(N)=O)cc1Nc1nc(N[C@@H]2CCNC2)nc(N2CCCC(C(N)=O)C2)n1 (some centres not stated) ?
Reply: < 1000 nM

Query: Can you check Cc1ccc(C(N)=O)cc1Nc1nc(NC(C)C2CCCCC2)nc(N[C@H]2CCNC2)n1 (some centres not stated) next?
Reply: < 1000 nM

Query: Entry to check: `Cc1ccc2c(c1)ncn2-c1nc(NCCOC(C)C)cc(N(C)C)n1`
Reply: < 10000 nM
